Origin of values: patent US20260234242A1

Biological target: T1, human CDH6 on tumor cells (OVCAR3 cells, PA-1 cells) (human, UniProt P55285 54-790)
T1 sequence: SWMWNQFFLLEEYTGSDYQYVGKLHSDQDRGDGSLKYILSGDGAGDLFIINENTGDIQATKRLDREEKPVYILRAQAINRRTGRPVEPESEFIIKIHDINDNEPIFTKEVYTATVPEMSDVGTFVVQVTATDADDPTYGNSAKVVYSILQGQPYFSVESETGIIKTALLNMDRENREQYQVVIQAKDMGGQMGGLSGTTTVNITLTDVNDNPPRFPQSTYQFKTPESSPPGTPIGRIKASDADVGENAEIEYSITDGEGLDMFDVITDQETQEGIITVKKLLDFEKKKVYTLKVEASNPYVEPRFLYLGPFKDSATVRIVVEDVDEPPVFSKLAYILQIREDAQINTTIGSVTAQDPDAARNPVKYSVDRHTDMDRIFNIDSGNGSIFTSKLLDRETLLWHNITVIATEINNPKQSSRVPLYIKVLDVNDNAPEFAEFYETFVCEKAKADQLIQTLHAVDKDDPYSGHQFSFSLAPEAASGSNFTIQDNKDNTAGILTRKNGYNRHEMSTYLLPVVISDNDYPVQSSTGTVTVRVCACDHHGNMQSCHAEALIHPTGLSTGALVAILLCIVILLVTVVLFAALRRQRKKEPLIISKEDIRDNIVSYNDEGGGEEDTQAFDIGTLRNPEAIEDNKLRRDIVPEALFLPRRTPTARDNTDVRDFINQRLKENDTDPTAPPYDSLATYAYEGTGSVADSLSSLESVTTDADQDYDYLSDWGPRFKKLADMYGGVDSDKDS
Assay: FACS, OVCAR3 cells
Parameter: EC50 (nM)
Your answer is read as nM, so omit the unit and give the number.

Use the examples below as a reference point.
NOV0712 (antibody, human IgG1, kappa, V domains shown, Positive control, variable regions from WO2018212136A1; also called positive control anti-human CDH6 antibody) VH: QVQLLESGGGLVQPGGSLRLSCAASGFTFSSHGMHWVRQAPGKGLEWVSVISGSGSNTGYADSVKGRFTISRDNSKNTLYLQMNSLRAEDTAVYYCARQWGSYAFDSWGQGTLVTVSS VL: DIQMTQSPSSLSASVGDRVTITCRASQSISSYLNWYQQKPGKAPKLLIYAVSTLQSGVPSRFSGSGSGTDFTLTISSLQPEDFATYYCQQSGTFPPTTFGQGTKVEIKR = 1.92
CHI-CDH6-4 (antibody, human IgG1, kappa, V domains shown, also called CH1-CDH6-4; chimeric antibody of murine CDH6-4) VH: QVQLQQSGPELVKPGASVKISCKASGYAFSNFWMNWVKQRPGKGLEWIGWIYPGDGDTNYNGKFKDKATLTADKSSSTAYIQLSSLTSEDSAVYFCARLYDAWGFFDYWGQGTTLTVSS VL: QIVLTQSPAIMSASPGQKVTITCSASSSVNYMHWYQQKLGSSPKLWIYDKSKLAPGVPARFSGSGSGTSYSLTISSMEAEDAASYFCHQWSSYPPMTFGGGTKLEIKR = 3.17

Then there is this binder:
Input CHI-CDH6-8 (antibody, human IgG1, kappa, V domains shown, also called chimeric antibody of murine CDH6-8) VH: EVQLQQSGPELVKPGDSVKMSCKASGYTFTDYYMAWIKQNHGKSLEWIGYIYPNNGGTDYNQKFRGKATLTVDKSSSAAYMELHSLTSEDSAVYYCAREIGTLYGDYYAMDYWGQGTSVTVSS VL: DIQMTQSPASLSASVGETVTITCRASENIDSYLAWYQQKQGKSPQLLVYTATLLADGVPSRFSGSGSGTQYSLKINSLQSEDVARYYCQHYYSTPPTFGSGTKLEIKR . Output EC50: 0.46
